Field: ΔTm. Provide a value for each of the molecules that follow.
Test system: Stimulator of interferon genes protein (Homo sapiens), Q86WV6 [UNDEFINED MUTATION]; further: test concentration or dose not given here
Sequence (Q86WV6 whole entry, looked up, change not shown): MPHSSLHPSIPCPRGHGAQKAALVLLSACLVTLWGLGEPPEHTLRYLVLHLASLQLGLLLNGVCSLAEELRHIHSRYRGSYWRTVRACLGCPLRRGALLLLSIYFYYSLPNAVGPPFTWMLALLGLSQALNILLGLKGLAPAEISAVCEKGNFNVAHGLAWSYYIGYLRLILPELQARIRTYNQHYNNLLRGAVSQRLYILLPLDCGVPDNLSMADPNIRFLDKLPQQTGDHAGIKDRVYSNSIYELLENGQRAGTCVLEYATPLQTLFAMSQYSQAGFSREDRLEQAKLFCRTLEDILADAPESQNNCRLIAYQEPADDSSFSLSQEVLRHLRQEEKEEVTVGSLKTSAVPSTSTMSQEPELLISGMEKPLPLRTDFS
DETAILS: filed as agonist
Write the answer as a number in °C, unit excluded.

Ask | State the recorded ΔTm for this entry: `Nc1nc2c(ncn2[C@@H]2O[C@@H]3COP(=O)(O)O[C@H]4C[C@H](n5cnc6c(N)ncnc65)O[C@@H]4/C=C/P(=O)(O)O[C@H]3[C@H]2F)c(=O)[nH]1`
Reply | 4.8

Ask | Please give the measured ΔTm for this molecule: `Nc1nc2c(ncn2[C@H]2C[C@@H]3OP(=O)(O)/C=C/[C@H]4O[C@@H](n5cnc6c(N)ncnc65)[C@H](F)[C@@H]4OP(=O)(O)OC[C@H]3O2)c(=O)[nH]1`
Reply | 5.2

Ask | Fill blank: measured ΔTm of the molecule `Nc1nc2c(ncn2[C@@H]2O[C@@H]3/C=C/P(=O)(O)O[C@H]4[C@@H](F)[C@H](n5cnc6c(=O)[nH]c(N)nc65)O[C@@H]4COP(=O)(O)O[C@H]3[C@H]2F)c(=O)[nH]1` is ____.
Reply | 3.4

Ask | // ΔTm lookup, key: `Nc1ncnc2c1ncn2[C@@H]1O[C@@H]2/C=C\P(=O)(O)O[C@H]3[C@@H](F)[C@H](n4cnc5c(N)ncnc54)O[C@@H]3COP(=O)(O)O[C@H]2[C@H]1F`
Reply | 6

Ask | Quick check: ΔTm of `Nc1ncnc2c1ncn2[C@@H]1O[C@@H]2/C=C/P(=O)(O)O[C@H]3C[C@H](n4cnc5c(N)ncnc54)O[C@@H]3COP(=O)(O)O[C@H]2[C@H]1F` ?
Reply | 2.7

Ask | Would you mind telling me what ΔTm value was observed for `Nc1nc2c(ncn2[C@H]2C[C@@H]3OP(=O)(O)/C=C/[C@H]4O[C@@H](n5cnc6c(N)ncnc65)C[C@@H]4OP(=O)(O)OC[C@H]3O2)c(=O)[nH]1` ?
Reply | 0.9

Ask | Requested field: ΔTm. Item: `Nc1ncnc2c1ncn2[C@@H]1O[C@@H]2COP(=O)(O)O[C@H]3C[C@H](n4cnc5c(N)ncnc54)O[C@@H]3/C=C/P(=O)(O)O[C@H]2[C@H]1F`
Reply | 2.3

Ask | Looking for the measured ΔTm of `Nc1nc2c(ncn2[C@@H]2O[C@@H]3/C=C/P(=O)(O)O[C@H]4[C@@H](F)[C@H](n5cnc6c(N)ncnc65)O[C@@H]4COP(=O)(O)O[C@H]3[C@H]2F)c(=O)[nH]1` , can you help?
Reply | 9.4

Ask | Any idea what ΔTm was measured for `Nc1nc2c(ncn2[C@H]2C[C@@H]3OP(=O)(O)OC[C@H]4O[C@@H](n5cnc6c(N)ncnc65)C[C@@H]4OP(=O)(O)/C=C/[C@H]3O2)c(=O)[nH]1` ?
Reply | 1.9
